assay.remarks: small-molecule binders of probe aInhba, primary screen, biochemical, small-molecule microarray, 635/667 nm fluorescence (AID 1148);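 note: score merges 667nm spot fluorescence with signal-to-noise for antibody binding to printed compounds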
condition.context: higher = more signal
Assign criterion met whenever composite z-score does not fall below -0.07; assign criterion not met whenever it does.

Evaluate `CCOC(=O)C[C@H]1[C@H](OC(=O)c2cc3ccccc3oc2=O)[C@@H](NC(=O)c2ccc3ccccc3c2)c2cc(OCCCO)ccc2N1C(=O)Cc1ccc(OC)cc1` : composite z-score at minimum -0.07? criterion not met

Quick one: `COC(=O)[C@@]1(Cc2ccc(OC)cc2)[C@H]2c3cc(C(=O)N4CCCC4)n(Cc4ccc(OC(F)(F)F)cc4)c3C[C@H]2CN1C(=O)c1ccccc1` criterion met

Another compound: `CCOC(=O)C1=CC[C@@H](c2ccccc2)N(S(=O)(=O)c2ccc(C)cc2)[C@H]1C=Cc1ccccc1` criterion met

Please do the same for C=CC1c2cc(O)c(OC)cc2CCN1Cc1ccc([N+](=O)[O-])o1 (configuration not stated) as well. criterion met

Query O=C1NC(=O)C2C1C=CC(C(O)c1ccccn1)N2Nc1ccc(Cl)cc1Cl (configuration not stated) next criterion not met

Do the same for `CC(=O)NCCCC[C@@H]1NC(=O)[C@H]2C[C@@H](C(=O)NCCCCCNC(=O)CS)[C@@H](c3cccc(OCCO)c3)N2C1=O` please criterion not met
